Values compiled from ChEMBL document CHEMBL1145137.

Target: Coagulation factor VII (Homo sapiens, UniProt P08709)
Sequence (P08709 whole entry): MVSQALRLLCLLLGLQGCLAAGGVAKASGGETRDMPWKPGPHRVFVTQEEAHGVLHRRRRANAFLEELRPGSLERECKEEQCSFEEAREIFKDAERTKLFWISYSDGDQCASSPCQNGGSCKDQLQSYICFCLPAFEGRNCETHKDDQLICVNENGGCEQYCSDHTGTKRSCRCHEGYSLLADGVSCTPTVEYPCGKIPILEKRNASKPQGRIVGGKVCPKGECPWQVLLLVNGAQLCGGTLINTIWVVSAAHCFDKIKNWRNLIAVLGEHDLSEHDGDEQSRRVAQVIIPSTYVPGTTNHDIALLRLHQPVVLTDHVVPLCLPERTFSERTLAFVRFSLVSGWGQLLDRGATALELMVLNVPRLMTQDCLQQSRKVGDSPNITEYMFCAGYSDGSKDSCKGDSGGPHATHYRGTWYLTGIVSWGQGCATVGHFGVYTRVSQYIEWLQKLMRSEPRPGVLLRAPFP
Assay: Inhibitory concentration against recombinant human coagulation factor VII
Assign IC50 to each entry below.
Give bare numbers, in nM.

CC(C)Nc1ccc(-c2cc(N)cc(N)c2)n(CC(=O)NCc2ccc(C(=N)N)cc2)c1=O	52

Look up and state reported IC50 for CC(C)Nc1ccc(-c2cc(N)cc(C(=O)O)c2)n(CC(=O)NCc2ccc(C(=N)N)cc2)c1=O
118
